The values you see were collected from patent US20240002497A1.

# pEC50 annotations
target: T1, rhNav1.7α + β1-β2-β3 (rhesus Nav1.7α co-expressed with Navβ1, Navβ2 and Navβ3 on cells) (rhesus monkey (α subunit); β subunits …); assay: binding FACS, CHO FlpIn cells
T1 construct: also called rhNav1.7-beta1-beta2-beta3; CHO FlpIn rhNav1.7α + β1-β2-β3
Please express pEC50 as -log10 of the molar concentration.

Some entries whose results are on file:
BINDER	pEC50
F010302326 (VHH, also called F0103387G04(L11V, A12V, K33R, R39Q, S50Y, S56D, T60A, W78V, S79Y, T83R, V89L, N93R, D99R)) VHH: EVQLVESGGGVVQPGGSLRLSCAASGPVFNINRMAWYRQAPGKQRELVAYVTPTGDISYADSVKGRFTISRDGSKRVYLQMNSLRPEDTALYYCRALLQPRSYSNTRTYWGQGTLVTVSS	7.74
F010302372 (VHH, also called F0103387G04(L11V, A12V, K33R, R39Q, S50Y, S56D, T60A, G73R, W78V, S79Y, T83R, V89L, N93R, S100V, N100cI)) VHH: EVQLVESGGGVVQPGGSLRLSCAASGPVFNINRMAWYRQAPGKQRELVAYVTPTGDISYADSVKGRFTISRDRSKRVYLQMNSLRPEDTALYYCRALLQPDVYSITRTYWGQGTLVTVSS	7.70
F010302312 (VHH, also called F0103387G04(L11V, A12V, K33R, R39Q, S50Y, S56D, T60A, W78V, S79Y, T83R, V89L, N93R, N100cI)) VHH: EVQLVESGGGVVQPGGSLRLSCAASGPVFNINRMAWYRQAPGKQRELVAYVTPTGDISYADSVKGRFTISRDGSKRVYLQMNSLRPEDTALYYCRALLQPDSYSITRTYWGQGTLVTVSS	7.74

Now, please, on to the next binder.
Enquiry: For the binder F010301846 (VHH, also called F0103387G04(L11V, A12V, K33R, R39Q, S50Y, S56D, S79Y, T83R, V89L, N93R)) VHH: EVQLVESGGGVVQPGGSLRLSCAASGPVFNINRMAWYRQAPGKQRELVAYVTPTGDISYTDSVKGRFTISRDGSKRWYLQMNSLRPEDTALYYCRALLQPDSYSNTRTYWGQGTLVTVSS , what pEC50 is on record?
Return: 7.96
